Listed here are molecules together with their documented βj^mito.
test system: mitochondria; experiment: QSLR factorial logistic regression of mitochondrial localization (affinity coefficients, cross-validated prediction); design: species or system human; settings: influence of B group on mitochondrial localization

Cc1cccc[n+]1C.[I-] 4.2
Cc1cc(C)[n+](C)c(C)c1.[I-] 2.5
Cc1ccc2ccccc2[n+]1C.[I-] 0.4
COc1ccc2c(ccc(C)[n+]2C)c1.[I-] −2.0
Cc1ccc[n+](C)c1C.[I-] 3.0

Q: Which βj^mito is reported for this molecule? Cc1cc[n+](C)c(C)c1.[I-]
A: 2.1

Q: Also Cc1cc[n+](C)c2ccccc12.[I-] , if possible.
A: 3.5

Q: Also Cc1cnc2c(ccc3c(C)c(C)c[n+](C)c32)c1C.[I-] , if possible.
A: 0.0

====

experiment: Additive decomposition of peak excitation and emission wavelengths (model coefficients of A and B groups)
Measured quantity: influence of group on peak wavelength

O=Cc1ccc2ccccc2c1 bluer
O=Cc1c2ccccc2cc2ccccc12 redder
O=Cc1ccc(F)cc1 redder

====

test system: live UACC-62 human melanoma cells; test: Organelle-binding test: subcellular localization of styryl library compounds by fluorescence microscopy; assay type: cell-based; set-up: key: The subscript m indicates experimentally determined mitochondrial localization; The subscript o indicates experimentally determined non-mitochondrial localization; details: mitochondrial vs non-mitochondrial, live UACC-62 cells
Measured quantity: experimentally determined localization (subscript)

Examples from the recorded data:
Compound	Reported value
C(=Cc1cc[n+](C23CC4CC(CC(C4)C2)C3)cc1)Cc1ccccc1.[Br-] [Compound A1-B2]	o
COc1cc(OC)c(OC)cc1C=Cc1cc[n+](C)c(-c2cc(C)ccn2)c1.[I-] [Compound A38-B10]	m
Oc1ccc(C=Cc2cc[n+](C34CC5CC(CC(C5)C3)C4)cc2)cc1.[Br-] [Compound A16-B2]	m
Cc1ccnc(-c2cc(C=CC=Cc3ccccc3)cc[n+]2C)c1.[I-] [Compound A35-B10]	o
CN(C)c1ccc(C=Cc2ccc3ccccc3[n+]2C)cc1.[I-] [Compound A19-B8]	o
COc1ccc2ccccc2c1C=Cc1cc[n+](C)cc1.[I-] [Compound A23-B1]	m

Q: Tell me reported experimentally determined localization (subscript) for COc1ccc2c(ccc(C=CCc3ccccc3)[n+]2C)c1.[I-] [Compound A1-B9] , tested with live UACC-62 human melanoma cells.
A: m

Q: Also COc1ccc2c(ccc(C=Cc3ccc(NC(C)=O)cc3)[n+]2C)c1.[I-] [Compound A18-B9] , if possible.
A: o

====

test system: live UACC-62 human melanoma cells; assay: Organelle-binding test: subcellular localization of styryl library compounds by fluorescence microscopy; format: cell-based; set-up: key: The subscript m indicates experimentally determined mitochondrial localization; The subscript o indicates experimentally determined non-mitochondrial localization; details: mitochondrial vs non-mitochondrial, live UACC-62 cells
Measured quantity: experimentally determined localization (subscript)

Examples from the recorded data:
CN(C)c1ccc(C=Cc2cc[n+](C)cc2)c2ccccc12.[I-] o
Cc1ccnc(-c2cc(C=CC=Cc3ccc(N(C)C)cc3)cc[n+]2C)c1.[I-] o
Cc1cc[n+](C)c(/C=C/c2c[nH]c3ccccc23)c1.[I-] m
COc1ccc2ccccc2c1C=Cc1cccc[n+]1C.[I-] o
COc1ccc(C=Cc2ccc3ccccc3[n+]2C)cc1O.[I-] m

Q: Which experimentally determined localization (subscript) is reported for this compound? C[n+]1ccccc1C=Cc1ccc(OCc2ccccc2)c(OCc2ccccc2)c1.[I-]
A: m

Q: Also COc1ccc2ccccc2c1C=Cc1c(C)ccc[n+]1C.[I-] , if possible.
A: o

Q: Also C(=Cc1c[nH]c2ccccc12)c1cc[n+](C23CC4CC(CC(C4)C2)C3)cc1.[Br-] , if possible.
A: m

Q: Also COc1cc(OC)c(OC)cc1C=Cc1cc[n+](C)c2ccccc12.[I-] , if possible.
A: o

Q: Also Cc1ccc[n+](C)c1C=CC=Cc1ccc(N(C)C)cc1.[I-] , if possible.
A: m
